# Tested on: T1, cynomolgus monkey IL-17A (cynomolgus monkey, UniProt A0A2K5TTB0 24-155)
# T1 construct: also called cyno IL-17A; cyno IL-17
# T1 sequence: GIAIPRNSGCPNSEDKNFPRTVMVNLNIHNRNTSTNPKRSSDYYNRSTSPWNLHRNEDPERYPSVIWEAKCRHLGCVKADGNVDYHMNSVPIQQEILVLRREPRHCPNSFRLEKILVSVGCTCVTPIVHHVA
# Assay procedure: ECL (Origen); area under the curve
Provide the reported Area Under Peak of each item.

Provide Area Under Peak value for the following binder: rat 16C10 (antibody, rat IgG1, V domains shown, also called 16C10C; antibody 16C10) VH: QVELRESGPGLVQPSQTLSLTCTVSGFSLPSHSVSWIRQPPGKGLEWMGIIWNNGGTDYNSAFKSRLTISRDTSKSQVFLKMNSLQTEDTAMYFCARNMYITDYYYENYFMDAWGQGASVTVSS VL: DIVMTQSPSSLAVSIGETVTLNCKSSQSLLFSENQKNYLAWYQHKSGQSPKLLVYWTSTRQSGVPDRFMGSGSGTDFTLTISSVQAEDLAIYYCQQSYYTPYTFGAGTKLELKR
152000

Provide Area Under Peak value for the following binder: rat 23E12 (antibody, V domains shown, Parental rat monoclonal antibody (hybridoma PTA-7740)) VH: QVQLKESGPGLVQPSQTLSLTCTVFGFSLTNNGVTWVRQPPGKGLEWIAEVSSGGSTDYNSALKSRLSISRDTSKSQVFLRMNSLQTEDTAIYFCARQEVFTGLLDYWGQGVMVTVSS VL: DIQMTQSPASLSASLGETVTIQCQASEDIYSGLAWYHQKPGKSPQLLILGASRLHDGVPSRFSGSGSGIEYSLKINNMQTEDEGIYFCQQGLKYPPTFGGGTKLELKR
111000

Provide Area Under Peak value for the following binder: rat 1D10 (antibody, V domains shown, Parental rat monoclonal antibody; also called ID10; anti-IL-17A antibody 1D10) VH: QVQLKESGPGLVQPSQTLSLTCTVSGFSLTNYYVHWVRQPPGKGLEWMGGVWNDGDTSYNSVLRSRLSITRDTSKSQVLLKMSSLQTEDTATYYCAREGREGFVGYYVMDAWGPGASVTVSS VL: DIQMTQSPSFLSASVGERVTLSCKASQNINKYLDWFQQKLGEAPKLLIYNADNLHTGIPSRFSGSGSFSDFILTISSLQPEDDATYFCLQRESWPYTFGAGTKLELKR
136000

Provide Area Under Peak value for the following binder: rat 30C10 (antibody, V domains shown, Parental rat monoclonal antibody (hybridoma PTA-7739); also called 30C10C) VH: EVQLVESGGGLVQPGRSQKLSCVVSGFTFNNYWMTWIRQAPGKGLEWVASVSNTGSSTYYPASVKGRFTISRDNAKSTLYLQMNSLRSEDTATYYCTREGAYYLDYWGQGVMVTVSS VL: DIVMTQSPSSLAVSPGETVTINCKSSQSLFWSESHMNYLAWYQQKPGQSPKLLIYYASTRQSGVPDRFIGSGSGTDFTLTISGVQAEDLAVYYCHHHYDSHTFGAGTKLELKR
124000
